- SYSTEM NAME: Human αvβ3 (Homo sapiens, UniProt P05106+P06756)
- Construct: purchased Chemicon International Inc., Temecula, Calif
- Sequence (P06756 31-889 limits assumed): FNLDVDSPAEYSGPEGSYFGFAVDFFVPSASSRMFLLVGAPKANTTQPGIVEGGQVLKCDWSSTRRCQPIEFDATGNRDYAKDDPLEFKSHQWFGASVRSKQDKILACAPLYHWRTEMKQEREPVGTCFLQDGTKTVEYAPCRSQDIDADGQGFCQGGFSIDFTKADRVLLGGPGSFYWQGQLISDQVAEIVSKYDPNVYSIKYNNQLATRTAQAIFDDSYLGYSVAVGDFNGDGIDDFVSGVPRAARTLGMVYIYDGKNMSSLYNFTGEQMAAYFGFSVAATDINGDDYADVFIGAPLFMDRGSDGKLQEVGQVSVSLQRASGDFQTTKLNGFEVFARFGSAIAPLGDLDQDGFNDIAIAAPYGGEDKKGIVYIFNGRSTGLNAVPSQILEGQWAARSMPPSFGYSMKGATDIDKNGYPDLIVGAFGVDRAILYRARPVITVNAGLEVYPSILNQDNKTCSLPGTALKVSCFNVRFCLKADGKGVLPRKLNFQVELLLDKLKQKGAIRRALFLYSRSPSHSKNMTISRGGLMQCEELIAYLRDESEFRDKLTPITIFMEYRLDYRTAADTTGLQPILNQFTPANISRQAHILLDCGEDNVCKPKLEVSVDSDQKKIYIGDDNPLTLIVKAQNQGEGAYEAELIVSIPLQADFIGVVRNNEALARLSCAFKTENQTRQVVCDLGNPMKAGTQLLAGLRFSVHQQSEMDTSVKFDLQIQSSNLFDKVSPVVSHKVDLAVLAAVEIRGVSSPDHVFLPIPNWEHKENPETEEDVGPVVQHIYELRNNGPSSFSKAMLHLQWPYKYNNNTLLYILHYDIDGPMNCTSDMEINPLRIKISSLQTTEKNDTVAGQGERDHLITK
- Sequence (P06756 891-1048 partner limits assumed): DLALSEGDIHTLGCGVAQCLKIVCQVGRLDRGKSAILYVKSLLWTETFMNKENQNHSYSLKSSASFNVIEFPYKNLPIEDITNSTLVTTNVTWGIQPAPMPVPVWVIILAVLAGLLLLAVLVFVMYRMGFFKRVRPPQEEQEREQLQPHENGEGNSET
- Sequence (P05106 27-788): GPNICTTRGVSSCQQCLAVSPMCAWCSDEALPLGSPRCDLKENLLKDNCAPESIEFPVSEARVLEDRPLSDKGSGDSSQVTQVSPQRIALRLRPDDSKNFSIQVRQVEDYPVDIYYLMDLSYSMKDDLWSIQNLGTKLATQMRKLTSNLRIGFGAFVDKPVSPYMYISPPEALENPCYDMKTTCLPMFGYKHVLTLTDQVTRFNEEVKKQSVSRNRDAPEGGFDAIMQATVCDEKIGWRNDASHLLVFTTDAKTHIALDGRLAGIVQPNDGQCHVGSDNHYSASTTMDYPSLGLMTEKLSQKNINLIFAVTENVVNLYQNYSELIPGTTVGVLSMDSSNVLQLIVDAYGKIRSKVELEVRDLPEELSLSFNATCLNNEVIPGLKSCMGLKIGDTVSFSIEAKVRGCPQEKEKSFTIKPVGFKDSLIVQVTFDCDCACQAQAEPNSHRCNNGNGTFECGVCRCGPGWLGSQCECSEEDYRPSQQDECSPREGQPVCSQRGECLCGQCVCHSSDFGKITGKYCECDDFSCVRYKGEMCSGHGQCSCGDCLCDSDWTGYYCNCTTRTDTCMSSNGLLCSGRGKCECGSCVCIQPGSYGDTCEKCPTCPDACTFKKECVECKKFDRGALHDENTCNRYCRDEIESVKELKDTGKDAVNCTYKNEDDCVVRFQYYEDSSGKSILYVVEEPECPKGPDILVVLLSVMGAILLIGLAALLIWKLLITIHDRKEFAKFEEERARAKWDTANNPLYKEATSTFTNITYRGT
- ASSAY DETAILS: In vitro solid phase purified αvβ3 binding assay (vitronectin/αvβ3)
- CONDITIONS: isolated human αvβ3, 5 nM vitronectin; read-out: αvβ3 Binding IC50
pIC50: −log10 of the molar value.
PROPERTY: pIC50

1 = Cc1c(C)c(C)c(S(=O)(=O)N[C@@H](Cc2nc3ccc(/C=C/CNC(=O)NCc4ccccc4)cc3c(=O)[nH]2)C(=O)O)c(C)c1C
2 = O=C(O)[C@H](Cc1nc2ccc(/C=C/CNC3=NCCN3)cc2c(=O)[nH]1)NS(=O)(=O)c1cccc2cccnc12
Prompt: Just tell me: smaller pIC50 value, 1 or 2 ? Reply briefly: the label of your chosen item.
Response: 2
(2: 7.85, 1: 8.06)

A = Cc1cc(C)c(S(=O)(=O)N[C@@H](Cc2nc3ccc(/C=C/CNC4=NCCN4)cc3c(=O)[nH]2)C(=O)O)c(C)c1
B = CCCCS(=O)(=O)N[C@@H](Cc1nc2ccc(/C=C/CNC(=O)NCc3ccccc3)cc2c(=O)[nH]1)C(=O)O
Prompt: Just tell me: smaller pIC50 value, A or B ? Reply briefly: the label of your chosen item.
Response: B

* * *

- SYSTEM NAME: GPIIb/IIIa (Homo sapiens, UniProt P05106+P08514)
- Sequence (P08514 32-887 limits assumed): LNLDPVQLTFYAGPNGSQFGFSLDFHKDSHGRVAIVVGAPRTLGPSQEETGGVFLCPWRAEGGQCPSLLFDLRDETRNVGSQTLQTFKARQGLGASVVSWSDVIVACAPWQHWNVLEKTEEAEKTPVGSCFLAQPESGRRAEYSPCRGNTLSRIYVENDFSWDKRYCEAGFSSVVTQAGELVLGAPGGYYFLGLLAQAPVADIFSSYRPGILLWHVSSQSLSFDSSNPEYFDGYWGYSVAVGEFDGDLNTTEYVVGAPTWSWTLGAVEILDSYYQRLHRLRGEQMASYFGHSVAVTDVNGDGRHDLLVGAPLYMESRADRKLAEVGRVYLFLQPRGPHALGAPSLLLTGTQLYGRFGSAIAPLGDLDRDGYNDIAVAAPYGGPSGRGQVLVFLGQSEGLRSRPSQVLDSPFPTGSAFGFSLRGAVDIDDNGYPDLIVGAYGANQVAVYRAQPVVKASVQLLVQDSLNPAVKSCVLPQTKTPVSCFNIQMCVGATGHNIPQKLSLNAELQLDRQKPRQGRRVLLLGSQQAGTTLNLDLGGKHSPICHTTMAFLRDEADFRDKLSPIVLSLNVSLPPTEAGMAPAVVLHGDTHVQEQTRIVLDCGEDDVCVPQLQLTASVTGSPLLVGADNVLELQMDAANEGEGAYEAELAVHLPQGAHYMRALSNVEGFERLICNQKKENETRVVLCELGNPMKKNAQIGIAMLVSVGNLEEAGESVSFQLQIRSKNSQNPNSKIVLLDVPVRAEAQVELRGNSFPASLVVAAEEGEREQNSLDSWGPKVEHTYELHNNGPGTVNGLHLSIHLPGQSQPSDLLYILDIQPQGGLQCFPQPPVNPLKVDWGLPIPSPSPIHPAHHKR
- Sequence (P08514 891-1039 partner limits assumed): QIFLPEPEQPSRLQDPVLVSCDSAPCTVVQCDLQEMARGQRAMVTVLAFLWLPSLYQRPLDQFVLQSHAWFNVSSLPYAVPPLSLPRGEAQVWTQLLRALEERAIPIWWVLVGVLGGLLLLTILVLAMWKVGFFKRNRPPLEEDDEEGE
- Sequence (P05106 27-788): as the sequence (P05106 27-788) above
- ASSAY DETAILS: In vitro solid phase purified glycoprotein IIb/IIIa binding assay (biotinylated fibrinogen)
- CONDITIONS: RGD-affinity purified GPIIb/IIIa, biotinylated fibrinogen; read-out: GPIIb/IIIa Binding IC50
pIC50: −log10 of the molar value.
PROPERTY: pIC50

Guide cases for pIC50, answers given:
Prompt: Item Cc1nn(C)c(Cl)c1S(=O)(=O)N[C@@H](Cc1nc2ccc(/C=C/CNc3ccccn3)cc2c(=O)[nH]1)C(=O)O [Compound 36] has what recorded pIC50?
Response: 5.57

Prompt: Item COc1cc(C)c(S(=O)(=O)N[C@@H](Cc2nc3ccc(/C=C/CNC(=O)NCc4ccccc4)cc3c(=O)[nH]2)C(=O)O)c(C)c1C [Compound 56] has what recorded pIC50?
Response: 5.41

Prompt: Item COc1ccc(S(=O)(=O)N[C@@H](Cc2nc3ccc(/C=C/CNc4ccc(C)cn4)cc3c(=O)[nH]2)C(=O)O)cc1OC [Compound 44] has what recorded pIC50?
Response: 6.10

Prompt: Item O=C(NC/C=C/c1ccc2nc(C[C@H](NS(=O)(=O)Cc3ccccc3)C(=O)O)[nH]c(=O)c2c1)NCc1ccccc1 [Compound 70] has what recorded pIC50?
Response: 5.49

a = CC(C)(C)c1ccc(S(=O)(=O)N[C@@H](Cc2nc3ccc(/C=C/CNc4ccccn4)cc3c(=O)[nH]2)C(=O)O)cc1 [Compound 23]
b = Cc1c(C)c(C)c(S(=O)(=O)N[C@@H](Cc2nc3ccc(/C=C/CNC4=NCCCC4)cc3c(=O)[nH]2)C(=O)O)c(C)c1C [Compound 52]
Prompt: Just tell me: smaller pIC50 value, a or b ? Reply briefly: the label of your chosen item.
Response: a

* * *

- SYSTEM NAME: GPIIb/IIIa (Homo sapiens, UniProt P05106+P08514)
- ASSAY DETAILS: In vitro solid phase purified glycoprotein IIb/IIIa binding assay (biotinylated fibrinogen)
- CONDITIONS: RGD-affinity purified GPIIb/IIIa, biotinylated fibrinogen; read-out: GPIIb/IIIa Binding IC50
PROPERTY: IC50 (nM)

Guide cases for IC50, answers given:
Prompt: Item `Cc1c(C)c(C)c(S(=O)(=O)N[C@@H](Cc2nc3ccc(/C=C/CNC4=NCCC4)cc3c(=O)[nH]2)C(=O)O)c(C)c1C` has what recorded IC50?
Response: 77

Prompt: Item `Cc1ccnc(NC/C=C/c2ccc3nc(C[C@H](NS(=O)(=O)c4c(C)c(C)c(C)c(C)c4C)C(=O)O)[nH]c(=O)c3c2)c1` has what recorded IC50?
Response: 1800

Prompt: Item `COc1ccc(S(=O)(=O)N[C@@H](Cc2nc3ccc(/C=C/CNC4=NCCC4)cc3c(=O)[nH]2)C(=O)O)cc1OC` has what recorded IC50?
Response: 270

Prompt: Item `Cc1c(C)c(C)c(S(=O)(=O)N[C@@H](Cc2nc3ccc(/C=C/CNc4nc5ccccc5c(=O)[nH]4)cc3c(=O)[nH]2)C(=O)O)c(C)c1C` has what recorded IC50?
Response: 12000

Prompt: Item `CNC(=O)NC/C=C/c1ccc2nc(C[C@H](NS(=O)(=O)c3c(C)c(C)c(C)c(C)c3C)C(=O)O)[nH]c(=O)c2c1` has what recorded IC50?
Response: 3900

Prompt: Item `COc1ccc(S(=O)(=O)N[C@@H](Cc2nc3ccc(/C=C/CNC4=NCCN4)cc3c(=O)[nH]2)C(=O)O)cc1` has what recorded IC50?
Response: 51

1 = Cc1c(C)c(C)c(S(=O)(=O)N[C@@H](Cc2nc3ccc(/C=C/CNC(=O)NCCc4ccccc4)cc3c(=O)[nH]2)C(=O)O)c(C)c1C
2 = Cc1c(C)c(C)c(S(=O)(=O)N[C@@H](Cc2nc3ccc(/C=C/CNC(N)=O)cc3c(=O)[nH]2)C(=O)O)c(C)c1C
Prompt: Which value of IC50 is greater, the one for 1 or the one for 2 ? Reply briefly: the label of your chosen item.
Response: 1

1 = COc1ccc(S(=O)(=O)N[C@@H](Cc2nc3ccc(/C=C/CNc4ccc(Cl)cn4)cc3c(=O)[nH]2)C(=O)O)cc1
2 = COc1cccc([C@@H](CC(=O)O)c2nc3ccc(/C=C/CNc4ccccn4)cc3c(=O)[nH]2)c1
3 = COc1ccc(S(=O)(=O)N[C@@H](Cc2nc3ccc(/C=C/CNC4=NCCN4)cc3c(=O)[nH]2)C(=O)O)cc1OC
Prompt: Ascending by IC50, please. Answer format: the labels, ordered as requested.
Response: 3, 1, 2

A = Cc1cccc(Cl)c1S(=O)(=O)N[C@@H](Cc1nc2ccc(/C=C/CNc3ccccn3)cc2c(=O)[nH]1)C(=O)O
B = Cc1c(C)c(C)c(S(=O)(=O)N[C@@H](Cc2nc3ccc(/C=C/CNc4nccn4C)cc3c(=O)[nH]2)C(=O)O)c(C)c1C
C = Cc1c(C)c(C)c(S(=O)(=O)N[C@@H](Cc2nc3ccc(CCCNc4ccccn4)cc3c(=O)[nH]2)C(=O)O)c(C)c1C
D = COc1ccc(S(=O)(=O)N[C@@H](Cc2nc3ccc(/C=C/CNC(=O)NCc4ccccc4)cc3c(=O)[nH]2)C(=O)O)cc1
E = C/C(=C\NC(=O)NC1CCCCC1)c1ccc2nc(C[C@H](NS(=O)(=O)c3c(C)c(C)c(C)c(C)c3C)C(=O)O)[nH]c(=O)c2c1
Prompt: Rank entries according to their IC50, from the largest number down. Answer format: the labels, ordered as requested.
Response: E, D, C, A, B

* * *

- SYSTEM NAME: Human αvβ3 (Homo sapiens, UniProt P05106+P06756)
- Construct: purchased Chemicon International Inc., Temecula, Calif
- ASSAY DETAILS: In vitro solid phase purified αvβ3 binding assay (vitronectin/αvβ3)
- CONDITIONS: isolated human αvβ3, 5 nM vitronectin; read-out: αvβ3 Binding IC50
PROPERTY: IC50 (nM)

Prompt: Any idea what IC50 came out for COc1ccc(S(=O)(=O)N[C@@H](Cc2nc3ccc(/C=C/CNC4=NCCC4)cc3c(=O)[nH]2)C(=O)O)cc1OC [Compound 55] on Human αvβ3 (Homo sapiens, UniProt P05106+P06756)?
Response: 42

Prompt: Any idea what IC50 came out for Cc1c(C)c(C)c(S(=O)(=O)N[C@@H](Cc2nc3ccc(/C=C/CNC(=O)NC(C)C)cc3c(=O)[nH]2)C(=O)O)c(C)c1C [Compound 58] on Human αvβ3 (Homo sapiens, UniProt P05106+P06756)?
Response: 44

Prompt: Any idea what IC50 came out for Cc1ccc(NC/C=C/c2ccc3nc(C[C@H](NS(=O)(=O)c4c(C)c(C)c(C)c(C)c4C)C(=O)O)[nH]c(=O)c3c2)nc1 [Compound 43] on Human αvβ3 (Homo sapiens, UniProt P05106+P06756)?
Response: 22

I = Cc1c(C)c(C)c(S(=O)(=O)N[C@@H](Cc2nc3ccc(/C=C/CNC(=N)c4cccnc4)cc3c(=O)[nH]2)C(=O)O)c(C)c1C [Compound 47]
II = Cc1ccnc(NC/C=C/c2ccc3nc(C[C@H](NS(=O)(=O)c4c(C)c(C)c(C)c(C)c4C)C(=O)O)[nH]c(=O)c3c2)c1 [Compound 45]
Prompt: Which value of IC50 is greater, the one for I or the one for II ? Reply briefly: the label of your chosen item.
Response: I

* * *

- SYSTEM NAME: GPIIb/IIIa (Homo sapiens, UniProt P05106+P08514)
- ASSAY DETAILS: In vitro solid phase purified glycoprotein IIb/IIIa binding assay (biotinylated fibrinogen)
PROPERTY: IC50 (µM)
Express your answer in µM, writing the number without its unit.

Prompt: Item COc1ccc(OC(=O)N[C@@H](Cc2nc3ccc(/C=C/CNC4=NCCN4)cc3c(=O)[nH]2)C(=O)O)cc1 [Compound 63] has what recorded IC50?
Response: 0.95

***
Prompt: Item COc1ccc(OC(=O)N[C@@H](Cc2nc3ccc(/C=C/CNC(=O)NCc4ccccc4)cc3c(=O)[nH]2)C(=O)O)cc1 [Compound 77] has what recorded IC50?
Response: 46
